Origin of measurements: PubChem BioAssay AID1918935

The entries below are paired with their reported viability, T/C.
Tested on: 324938-238-R-J1-PDC complex spheroid viability
Assay: Anticancer human tumor 324938-238-R-J1-PDC patient-derived bladder carcinoma cell line growth inhibition
Details: second compound 0.316 µM; first compound 0.0316 µM; stronger effect = lower value
Give the quantity in %, number only.

As a guide, the following entries are already answered.
CC1(C)CCC(CN2CCN(c3ccc(C(=O)NS(=O)(=O)c4ccc(NCC5CCOCC5)c([N+](=O)[O-])c4)c(Oc4cnc5[nH]ccc5c4)c3)CC2)=C(c2ccc(Cl)cc2)C1 + NC1CCC(NC2CC2c2ccccc2)CC1
74.2
CC1(C)CCC(CN2CCN(c3ccc(C(=O)NS(=O)(=O)c4ccc(NCC5CCOCC5)c([N+](=O)[O-])c4)c(Oc4cnc5[nH]ccc5c4)c3)CC2)=C(c2ccc(Cl)cc2)C1 + NC1CC1c1ccc(-c2cccc(O)c2)cc1
72
CC(C)CC(NC(=O)C(Cc1ccccc1)NC(=O)c1cnccn1)B(O)O (stereo unspecified) + NC1CC1c1ccc(-c2cccc(O)c2)cc1
0.26
CC(C)CC(NC(=O)C(Cc1ccccc1)NC(=O)c1cnccn1)B(O)O (stereo unspecified) + NC1CCC(NC2CC2c2ccccc2)CC1
0.02
CC(C)CC(NC(=O)CNC(=O)c1cc(Cl)ccc1Cl)B1OC(=O)CC(CC(=O)O)(C(=O)O)O1 (stereo unspecified) + NC1CC1c1ccc(-c2cccc(O)c2)cc1
0.95

I have this compound here, Cn1ncnc1C1c2n[nH]c(=O)c3cc(F)cc(c23)NC1c1ccc(F)cc1 (stereo unspecified) + NC1CC1c1ccc(-c2cccc(O)c2)cc1 , and I need its recorded viability, T/C.
50

----------
Test system: 324938-238-R-J1-PDC complex spheroid viability
Test: Anticancer human tumor 324938-238-R-J1-PDC cell line growth inhibition
Settings: second compound 0.316 µM; first compound 0.03 µM; stronger effect = lower value
The entries below are paired with their reported viability, T/C.
Give the quantity in %, number only.

Nc1ncn(C2CC(O)C(CO)S2)c(=O)n1 (centres undefined) + NC1CCC(NC2CC2c2ccccc2)CC1
43.9
Nc1ccccc1NC(=O)c1ccc(CNC(=O)OCc2cccnc2)cc1 + NC1CCC(NC2CC2c2ccccc2)CC1
88
Nc1ncn(C2CC(O)C(CO)S2)c(=O)n1 (centres undefined) + NC1CC1c1ccc(-c2cccc(O)c2)cc1
36.9

Please turn your attention to the following entry.
I have this compound here, Nc1ccccc1NC(=O)c1ccc(CNC(=O)OCc2cccnc2)cc1 + NC1CC1c1ccc(-c2cccc(O)c2)cc1 , and I need its recorded viability, T/C.
80.1

----------
Tested on: 324938-238-R-J1-PDC complex spheroid viability
Assay: Anticancer human tumor 324938-238-R-J1-PDC cell line growth inhibition
Details: second compound 1 µM; first compound 0.01 µM; stronger effect = lower value
// classify: if (viability, T/C < 60%) Satisfied else Not satisfied

Below, 4 compounds whose answers are already recorded.
O=C(C=Cn1cnc(-c2cc(C(F)(F)F)cc(C(F)(F)F)c2)n1)NNc1cnccn1 + NC1CCC(NC2CC2c2ccccc2)CC1
Satisfied
CC(C)CC(NC(=O)C(Cc1ccccc1)NC(=O)c1cnccn1)B(O)O (stereo unspecified) + NC1CCC(NC2CC2c2ccccc2)CC1
Satisfied
CC1COCCN1c1cc(-c2ccnn2C)c2ccnc(-c3ccn[nH]3)c2n1 (stereo unspecified) + NC1CCC(NC2CC2c2ccccc2)CC1
Not satisfied
Cn1ncnc1C1c2n[nH]c(=O)c3cc(F)cc(c23)NC1c1ccc(F)cc1 (stereo unspecified) + NC1CCC(NC2CC2c2ccccc2)CC1
Not satisfied

Proceed to the following item.
Quick check: does COc1cc(Nc2ncc3c(n2)-c2ccc(Cl)cc2C(c2c(F)cccc2OC)=NC3)ccc1C(=O)O + NC1CC1c1ccc(-c2cccc(O)c2)cc1 have viability, T/C under 60%?
Satisfied

----------
Tested on: 324938-238-R-J1-PDC complex spheroid viability
Experiment: Anticancer human tumor 324938-238-R-J1-PDC cell line growth inhibition
Details: curve of first compound; second compound 10 µM
pIC50: −log10 of the molar value.
Readout type: pIC50

As a guide, the following entries are already answered.
CCc1c2c(nc3ccc(O)cc13)-c1cc3c(c(=O)n1C2)COC(=O)[C@]3(O)CC + NC1CC1c1ccc(-c2cccc(O)c2)cc1
> 9.02
CCc1c2c(nc3ccc(O)cc13)-c1cc3c(c(=O)n1C2)COC(=O)[C@]3(O)CC + NC1CCC(NC2CC2c2ccccc2)CC1
> 9.02
CC(C)c1c(-c2ccccc2)nc2c(C#N)c[nH]n2c1=O + NC1CCC(NC2CC2c2ccccc2)CC1
< 5.00
CC(C)c1c(-c2ccccc2)nc2c(C#N)c[nH]n2c1=O + NC1CC1c1ccc(-c2cccc(O)c2)cc1
< 5.00

Please turn your attention to the following entry.
I have this compound here, CCN(c1cc(-c2ccc(CN3CCOCC3)cc2)cc(C(=O)NCc2c(C)cc(C)[nH]c2=O)c1C)C1CCOCC1 + NC1CCC(NC2CC2c2ccccc2)CC1 , and I need its recorded pIC50.
< 5.52

----------
The entries below are paired with their reported viability, T/C.
Tested on: 324938-238-R-J1-PDC complex spheroid viability
Test: Anticancer human tumor 324938-238-R-J1-PDC cell line growth inhibition;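 note: spheroids also contain HUVEC and human MSCs and agents combined with iadademstat; spheroids exposed to agents for 7 days before readout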
Conditions: second compound 1 µM; first compound 0.316 µM; stronger effect = lower value

As a guide, the following entries are already answered.
COc1ccc([C@@H](O)c2cc(-c3ncnc4cc(N5CCOCC5)ccc34)c(F)cc2Cl)nn1 + NC1CCC(NC2CC2c2ccccc2)CC1
65.2%
O=C(C=Cn1cnc(-c2cc(C(F)(F)F)cc(C(F)(F)F)c2)n1)NNc1cnccn1 + NC1CC1c1ccc(-c2cccc(O)c2)cc1
2.87%

Please turn your attention to the following entry.
I have this compound here, O=C(c1cc(Cc2n[nH]c(=O)c3ccccc23)ccc1F)N1CCN(C(=O)C2CC2)CC1 + NC1CC1c1ccc(-c2cccc(O)c2)cc1 , and I need its recorded viability, T/C.
64.4%

----------
Test system: 324938-238-R-J1-PDC complex spheroid viability
Experiment: Anticancer human tumor 324938-238-R-J1-PDC cell line growth inhibition;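 note: spheroids also contain HUVEC and human MSCs and agents combined with iadademstat; spheroids exposed to agents for 7 days before readout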
Details: curve of first compound; second compound 0.316 µM
The entries below are paired with their reported pIC50.
Remember the convention: pIC50 equals -log10 of concentration in molar.

Cn1ncnc1C1c2n[nH]c(=O)c3cc(F)cc(c23)NC1c1ccc(F)cc1 (configuration not stated) + NC1CC1c1ccc(-c2cccc(O)c2)cc1
7.28
O=C(C=Cc1cccc(S(=O)(=O)Nc2ccccc2)c1)NO + NC1CC1c1ccc(-c2cccc(O)c2)cc1
6.95

Please turn your attention to the following entry.
I have this compound here, Nc1ccccc1NC(=O)c1ccc(CNC(=O)OCc2cccnc2)cc1 + NC1CC1c1ccc(-c2cccc(O)c2)cc1 , and I need its recorded pIC50.
6.36

----------
Test system: 324938-238-R-J1-PDC complex spheroid viability
Assay: Anticancer human tumor 324938-238-R-J1-PDC cell line growth inhibition;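 note: spheroids also contain HUVEC and human MSCs and agents combined with iadademstat; spheroids exposed to agents for 7 days before readout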
Conditions: second compound 1 µM; first compound 0.316 µM; stronger effect = lower value
// classify: if (viability, T/C < 20%) TRUE else FALSE

Below, 5 molecules whose answers are already recorded.
CC1(C)CCC(CN2CCN(c3ccc(C(=O)NS(=O)(=O)c4ccc(NCC5CCOCC5)c([N+](=O)[O-])c4)c(Oc4cnc5[nH]ccc5c4)c3)CC2)=C(c2ccc(Cl)cc2)C1 + NC1CC1c1ccc(-c2cccc(O)c2)cc1
FALSE
CC1COCCN1c1cc(-c2ccnn2C)c2ccnc(-c3ccn[nH]3)c2n1 (stereo unspecified) + NC1CC1c1ccc(-c2cccc(O)c2)cc1
TRUE
Nc1ncn(C2CC(O)C(CO)O2)c(=O)n1 (stereo unspecified) + NC1CC1c1ccc(-c2cccc(O)c2)cc1
FALSE
COc1cc(Nc2ncc3c(n2)-c2ccc(Cl)cc2C(c2c(F)cccc2OC)=NC3)ccc1C(=O)O + NC1CCC(NC2CC2c2ccccc2)CC1
FALSE
COc1cc(Nc2ncc3c(n2)-c2ccc(Cl)cc2C(c2c(F)cccc2OC)=NC3)ccc1C(=O)O + NC1CC1c1ccc(-c2cccc(O)c2)cc1
TRUE

Proceed to the following item.
Quick check: does CC1COCCN1c1cc(C2(S(C)(=N)=O)CC2)nc(-c2ccnc3[nH]ccc23)n1 (stereo unspecified) + NC1CCC(NC2CC2c2ccccc2)CC1 have viability, T/C under 20%?
FALSE

----------
The entries below are paired with their reported pIC50.
Tested on: 324938-238-R-J1-PDC complex spheroid viability
Assay: Anticancer human tumor 324938-238-R-J1-PDC cell line growth inhibition;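 note: spheroids also contain HUVEC and human MSCs and agents combined with iadademstat; spheroids exposed to agents for 7 days before readout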
Details: curve of first compound; second compound 0.316 µM
pIC50: −log10 of the molar value.

As a guide, the following entries are already answered.
O=C(C=Cn1cnc(-c2cc(C(F)(F)F)cc(C(F)(F)F)c2)n1)NNc1cnccn1 + NC1CCC(NC2CC2c2ccccc2)CC1
> 8.50
CC(C)c1c(-c2ccccc2)nc2c(C#N)c[nH]n2c1=O + NC1CC1c1ccc(-c2cccc(O)c2)cc1
< 5.00
Nc1ccn(C2OC(CO)C(O)C2(F)F)c(=O)n1 (centres undefined) + NC1CC1c1ccc(-c2cccc(O)c2)cc1
> 9.02

Please turn your attention to the following entry.
Kindly state the measured pIC50 obtained for CCN(c1cc(-c2ccc(CN3CCOCC3)cc2)cc(C(=O)NCc2c(C)cc(C)[nH]c2=O)c1C)C1CCOCC1 + NC1CC1c1ccc(-c2cccc(O)c2)cc1 with 324938-238-R-J1-PDC complex spheroid viability.
< 5.52
